# Tested on: Aulacophora femoralis
# TEST: Test for Aulacophora femoralis (spray test)
# Format: in vivo
# PROTOCOL CONDITIONS: effective component concentration of 500 ppm; 2nd-instar, dipped cucumber leaves; after 7 days
PROPERTY LABEL: insecticidal ratio (%)
Express your answer in %, writing the number without its unit.

| MOLECULE | MEASURED ON | insecticidal ratio, % |
| --- | --- | --- |
| O=[N+]([O-])c1cc(C2=NOC(c3cc(C(F)(F)F)cc(C(F)(F)F)c3)(C(F)(F)F)C2)ccc1-n1cncn1 (racemic) [Compound 136] | Aulacophora femoralis | 100 |
| O=[N+]([O-])c1cc(C2=NOC(c3cc(F)cc(F)c3)(C(F)(F)F)C2)ccc1-n1cncn1 (centres unmarked) [Compound 85] | Aulacophora femoralis | 100 |
| FC(F)(F)C1(c2cc(Cl)cc(Cl)c2)CC(c2ccc(-n3cncn3)cc2)=NO1 (racemic) [Compound 91] | Aulacophora femoralis | 100 |
| Cc1cc(C2=NOC(c3cc(Cl)cc(Cl)c3)(C(F)(F)F)C2)ccc1-n1cncn1 (racemic) [Compound 99] | Aulacophora femoralis | 100 |
| COc1cc(C2=NOC(c3cc(Cl)cc(Cl)c3)(C(F)(F)F)C2)ccc1-n1cncn1 (racemic) [Compound 103] | Aulacophora femoralis | 100 |
| FC(F)(F)c1cc(C2=NOC(c3cc(Cl)cc(Cl)c3)(C(F)(F)F)C2)ccc1-n1cncn1 (racemic) [Compound 100] | Aulacophora femoralis | 100 |
| FC(F)(F)C1(c2cc(Cl)cc(Cl)c2)CC(c2ccc(-n3cncn3)c(Br)c2)=NO1 (racemic) [Compound 97] | Aulacophora femoralis | 100 |
| N#Cc1cc(C2=NOC(c3cc(Cl)cc(Cl)c3)(C(F)(F)F)C2)ccc1-n1ncnn1 (centres unmarked) [Compound 171] | Aulacophora femoralis | 100 |

Problem: Which insecticidal ratio value is on record for N#Cc1cc(C2=NOC(c3cccc(C(F)(F)F)c3)(C(F)(F)F)C2)ccc1-n1cc([N+](=O)[O-])cn1 (centres unmarked) [Compound 38] ?
Result: 100

Problem: Which insecticidal ratio value is on record for FC(F)(F)C1(c2cc(Cl)cc(Cl)c2)CC(c2ccc(-n3cncn3)c(I)c2)=NO1 (racemic) [Compound 98] ?
Result: 100
